test system: CD4+ve Th; assay: Inhibition of cytokine storm in ConA/1L-12-stimulated C57BL/6 mouse CD4+ T-lymphocytes assessed as reduction in Th17 cell differentiation by measuring proportion of CD4+IL17A-negative cells at 500 nM incubated for 48 hrs by flow cytometry (reference value: 31.6%); type: functional; parameters: scale not given: the % may be the effect or the level left

chem.smiles: C=CCc1cc2c(cc1O)O[C@H](c1ccc(OC)c(OC)c1)[C@H]2C
Activity (%): 57.7

chem.smiles: COc1ccc(/C=C/COc2cccc(O)c2)cc1OC
Activity (%): 74.1

chem.smiles: C=CCC1=C[C@]2(OC)C(=CC1=O)O[C@H](c1ccc(OC)c(OC)c1)[C@H]2C
Activity (%): 78.6

chem.smiles: C=CCOc1cccc(OC/C=C/c2ccc(OC)c(OC)c2)c1
Activity (%): 76.1
